experiment.summary: Peptide stability in simulated gastric fluid (SGF)
Assay type: in vitro ADME
measurement.parameters: pig, 1 h, pH 1.2, pepsin, 37° C.
*1 amine or outer side, *2 acyl side, *3 side chain or, on linkers, in order; H or OH if unused. Where a SMILES comes first, the peptide text is derived from it. Bridges are numbered along the chain shown (N, C = ends). [ ]: non-standard residue; d: D form. 2Nal = N[C@@H](Cc1ccc2ccccc2c1)C(=O)O; AEF = NCCOc1ccc(C[C@H](N)C(=O)O)cc1; X1 = O=C(Cc1ccc(CN[*:1])cc1)[*:2]; 3Pal = N[C@@H](Cc1cccnc1)C(=O)O; αMeL = CC(C)C[C@](C)(N)C(=O)O; β3hL = CC(C)C[C@H](N)CC(=O)O; Dab = NCC[C@H](N)C(=O)O
measured.endpoint: remaining at 1 h, 10 µM (%)
The reply should be a number in %, with the unit left off.

Looking up CC(C)C[C@@H](CC(N)=O)NC(=O)[C@H](Cc1cccnc1)NC(=O)[C@H](CCN)NC(=O)[C@@H]1CCC(=O)NCc2ccc(cc2)CC(=O)N[C@@H](CO)C(=O)N[C@H]2CCC(=O)NCC[C@H](NC(=O)[C@H](CCC(N)=O)NC(=O)[C@H](Cc3c[nH]c4ccccc34)NC2=O)C(=O)N[C@@H](Cc2ccc(OCCN)cc2)C(=O)N[C@@H](Cc2ccc3ccccc3c2)C(=O)N[C@@](C)(CC(C)C)C(=O)N1 [Compound 11] ([X1]SEWQ[Dab][AEF][2Nal][αMeL]E[Dab][3Pal][β3hL]-NH2; lactam 3-6, N-10) , I see its remaining at 1 h, 10 µM listed as 98

All values here come from patent US20260327264A1.
